Attribution: the supplement of paper PMC10567573

B1: PLAGL1 (parent)
chain: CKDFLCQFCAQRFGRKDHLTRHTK

- Variants of: B1
- testDetails: protein stability index of a GFP-peptide fusion (GPS, HEK-293T) (PSI 1-6); higher = more stable;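 note: lentivirally expressed fusions sorted by FACS into six bins by GFP to DsRed ratio, PSI derived from sequencing read proportions per bin multiplied by bin number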
- conditionParameters: c terminus: a fixed tail appended
I would appreciate it if you labelled entries T when protein stability index is 2 or higher, otherwise F.

seqText: CEDFLCQFCAQRFGRKDHLTRHTK [K2E]
labelValue: T

seqText: CKDFLCQFCAQRFGRKDHLTRHSK [T23S]
labelValue: T

In: In plain terms: is recorded protein stability index at least 2 for CKDFLYQFCAQRFGRKDHLTRHTK [C6Y] ?
Out: T

In: Okay, and CKDFCCQFCAQRFGRKDHLTRHTK [L5C] ?
Out: F

In: Okay, and CWDFLCQFCAQRFGRKDHLTRHTK [K2W] ?
Out: F

In: Okay, and CKDFRCQFCAQRFGRKDHLTRHTK [L5R] ?
Out: F

In: Okay, and CKDFLCQFCCQRFGRKDHLTRHTK [A10C] ?
Out: T

In: Okay, and CKDFLCQFCAQRFGRKDHLTRFTK [H22F] ?
Out: F
